species on record: Rattus norvegicus; assay: Open TG-GATES - Regimen: Daily Repeat; type: toxicity, organism-based, Sprague-Dawley; design: regimen Daily Repeat, gender Male, age 6 weeks; conditions: in vivo, po, 0 mg/kg, […], route gavage, dose level Control, time 28 day
TERMINAL_BW strictly less than 400 g = 1. Otherwise -1.

1) CCCc1cc(=O)[nH]c(=S)[nH]1 [PROPYLTHIOURACIL]	1
2) CC(C)NNC(=O)c1ccncc1 [IPRONIAZID]	1
3) Nc1c2c(nc3ccccc13)CCCC2 [TACRINE]	1
4) COC(=O)C1=C(C)NC(C)=C(C(=O)OC)C1c1ccccc1[N+](=O)[O-] [NIFEDIPINE]	-1
5) CCOc1ccc(NC(C)=O)cc1 [PHENACETIN]	-1
6) CN/C(=N/CCSCc1nc[nH]c1C)NC#N [CIMETIDINE]	1

---

Reported Mono values are given for each entry in this list.
species: Rattus norvegicus; test: Open TG-GATES - Regimen: Daily Repeat; assay type: toxicity, organism-based, Sprague-Dawley; set-up: regimen Daily Repeat, gender Male, age 6 weeks; conditions: in vivo, po, 0 mg/kg, […], tissue Blood, route gavage, dose level Control, time 7 day
measuredParameter: Mono (%)

1) O=C(OC[C@H]1O[C@@H](OC(=O)c2cc(O)c(O)c(OC(=O)c3cc(O)c(O)c(O)c3)c2)[C@H](OC(=O)c2cc(O)c(O)c(OC(=O)c3cc(O)c(O)c(O)c3)c2)[C@@H](OC(=O)c2cc(O)c(O)c(OC(=O)c3cc(O)c(O)c(O)c3)c2)[C@@H]1OC(=O)c1cc(O)c(O)c(OC(=O)c2cc(O)c(O)c(O)c2)c1)c1cc(O)c(O)c(OC(=O)c2cc(O)c(O)c(O)c2)c1	6.8
2) CN(C)CCC(c1ccc(Cl)cc1)c1ccccn1 (stereo not given)	2.8
3) Brc1ccccc1	2.8
4) CCCc1cc(=O)[nH]c(=S)[nH]1	5.6
5) NC1=NC(=O)C(c2ccccc2)O1 (stereo not given)	3.4
6) CNC(=C[N+](=O)[O-])NCCSCc1ccc(CN(C)C)o1	2.4
7) CN/C(=N/CCSCc1nc[nH]c1C)NC#N	2.2
8) COC(=O)C1=C(C)NC(C)=C(C(=O)OC)C1c1ccccc1[N+](=O)[O-]	3
9) CC(C)NNC(=O)c1ccncc1	2.2
10) CN1C(=O)CCS(=O)(=O)C1c1ccc(Cl)cc1 (stereo not given)	2.4

---

# Plat values compiled below
organism: Rattus norvegicus; test: Open TG-GATES - Regimen: Daily Repeat; type: toxicity, organism-based, Sprague-Dawley; parameters: regimen Daily Repeat, gender Male, age 6 weeks; settings: in vivo, po, 1000 mg/kg, […], tissue Blood, route gavage, dose level High, time 14 day
measuredParameter: Plat (x10_4/uL)

1. CNC(=C[N+](=O)[O-])NCCSCc1ccc(CN(C)C)o1 [RANITIDINE]	118.7
2. Cc1nnc2n1-c1ccc(Cl)cc1C(c1ccccc1Cl)=NC2 [TRIAZOLAM]	123.4
3. COC(=O)C1=C(C)NC(C)=C(C(=O)OC)C1c1ccccc1[N+](=O)[O-] [NIFEDIPINE]	120.3
4. CCOc1ccc(NC(C)=O)cc1 [PHENACETIN]	108.2
5. O=C(OC[C@H]1O[C@@H](OC(=O)c2cc(O)c(O)c(OC(=O)c3cc(O)c(O)c(O)c3)c2)[C@H](OC(=O)c2cc(O)c(O)c(OC(=O)c3cc(O)c(O)c(O)c3)c2)[C@@H](OC(=O)c2cc(O)c(O)c(OC(=O)c3cc(O)c(O)c(O)c3)c2)[C@@H]1OC(=O)c1cc(O)c(O)c(OC(=O)c2cc(O)c(O)c(O)c2)c1)c1cc(O)c(O)c(OC(=O)c2cc(O)c(O)c(O)c2)c1 [TANNIC ACID]	121.1
6. CN/C(=N/CCSCc1nc[nH]c1C)NC#N [CIMETIDINE]	128

---

species on record: Rattus norvegicus; test: Open TG-GATES - Regimen: Daily Repeat; assay type: toxicity, organism-based, Sprague-Dawley; design: regimen Daily Repeat, gender Male, age 6 weeks; settings: in vivo, po, 100 mg/kg, […], tissue Blood, route gavage, dose level Low, time 7 day
measuredParameter: RBC (x10_4/ul)

1) CCOc1ccc(NC(C)=O)cc1	696.4
2) O=C(OC[C@H]1O[C@@H](OC(=O)c2cc(O)c(O)c(OC(=O)c3cc(O)c(O)c(O)c3)c2)[C@H](OC(=O)c2cc(O)c(O)c(OC(=O)c3cc(O)c(O)c(O)c3)c2)[C@@H](OC(=O)c2cc(O)c(O)c(OC(=O)c3cc(O)c(O)c(O)c3)c2)[C@@H]1OC(=O)c1cc(O)c(O)c(OC(=O)c2cc(O)c(O)c(O)c2)c1)c1cc(O)c(O)c(OC(=O)c2cc(O)c(O)c(O)c2)c1	638.6
3) CN/C(=N/CCSCc1nc[nH]c1C)NC#N	648.2
4) Cc1nnc2n1-c1ccc(Cl)cc1C(c1ccccc1Cl)=NC2	667
5) CNC(=C[N+](=O)[O-])NCCSCc1ccc(CN(C)C)o1	643.2
6) COC(=O)C1=C(C)NC(C)=C(C(=O)OC)C1c1ccccc1[N+](=O)[O-]	659.6

---

species: Rattus norvegicus; assay: Open TG-GATES - Regimen: Daily Repeat; format: toxicity, organism-based, Sprague-Dawley; design: regimen Daily Repeat, gender Male, age 6 weeks; conditions: in vivo, po, 100 mg/kg, […], tissue Kidney, route gavage, dose level Low, time 14 day
Below, each entry is listed alongside its reported KIDNEY_TOTAL.
measuredParameter: KIDNEY_TOTAL (g)

1. O=C(OC[C@H]1O[C@@H](OC(=O)c2cc(O)c(O)c(OC(=O)c3cc(O)c(O)c(O)c3)c2)[C@H](OC(=O)c2cc(O)c(O)c(OC(=O)c3cc(O)c(O)c(O)c3)c2)[C@@H](OC(=O)c2cc(O)c(O)c(OC(=O)c3cc(O)c(O)c(O)c3)c2)[C@@H]1OC(=O)c1cc(O)c(O)c(OC(=O)c2cc(O)c(O)c(O)c2)c1)c1cc(O)c(O)c(OC(=O)c2cc(O)c(O)c(O)c2)c1	2.3
2. Cc1nnc2n1-c1ccc(Cl)cc1C(c1ccccc1Cl)=NC2	2.4
3. CN/C(=N/CCSCc1nc[nH]c1C)NC#N	2.5

---

species on record: Rattus norvegicus; experiment: Open TG-GATES - Regimen: Daily Repeat; assay type: toxicity, organism-based, Sprague-Dawley; design: regimen Daily Repeat, gender Male, age 6 weeks; conditions: in vivo, po, 1000 mg/kg, […], tissue Plasma, route gavage, dose level High, time 7 day
Readings of TC for the listed compounds
measuredParameter: TC

1. Cc1nnc2n1-c1ccc(Cl)cc1C(c1ccccc1Cl)=NC2	78.6 mg/dL
2. O=C(OC[C@H]1O[C@@H](OC(=O)c2cc(O)c(O)c(OC(=O)c3cc(O)c(O)c(O)c3)c2)[C@H](OC(=O)c2cc(O)c(O)c(OC(=O)c3cc(O)c(O)c(O)c3)c2)[C@@H](OC(=O)c2cc(O)c(O)c(OC(=O)c3cc(O)c(O)c(O)c3)c2)[C@@H]1OC(=O)c1cc(O)c(O)c(OC(=O)c2cc(O)c(O)c(O)c2)c1)c1cc(O)c(O)c(OC(=O)c2cc(O)c(O)c(O)c2)c1	62.6 mg/dL
3. COC(=O)C1=C(C)NC(C)=C(C(=O)OC)C1c1ccccc1[N+](=O)[O-]	68.8 mg/dL
4. CNC(=C[N+](=O)[O-])NCCSCc1ccc(CN(C)C)o1	76.8 mg/dL
5. CN/C(=N/CCSCc1nc[nH]c1C)NC#N	79.4 mg/dL
6. CCOc1ccc(NC(C)=O)cc1	75.6 mg/dL

---

species: Rattus norvegicus; assay: Open TG-GATES - Regimen: Single; type: toxicity, organism-based, Sprague-Dawley; design: regimen Single, gender Male, age 6 weeks; details: in vivo, po, 1000 mg/kg, 24 h, tissue Plasma, route gavage, dose level High
measuredParameter: AST

1) CN/C(=N/CCSCc1nc[nH]c1C)NC#N [CIMETIDINE]	68.8 IU/L
2) CNC(=C[N+](=O)[O-])NCCSCc1ccc(CN(C)C)o1 [RANITIDINE]	60.4 IU/L
3) COC(=O)C1=C(C)NC(C)=C(C(=O)OC)C1c1ccccc1[N+](=O)[O-] [NIFEDIPINE]	67.8 IU/L

---

organism: Rattus norvegicus; assay: Open TG-GATES - Regimen: Daily Repeat; type: toxicity, organism-based, Sprague-Dawley; parameters: regimen Daily Repeat, gender Male, age 6 weeks; settings: in vivo, po, 0 mg/kg, […], tissue Blood, route gavage, dose level Control, time 28 day
measuredParameter: MCHC

1. NC1=NC(=O)C(c2ccccc2)O1 (configuration not stated)	35.7%
2. COC(=O)C1=C(C)NC(C)=C(C(=O)OC)C1c1ccccc1[N+](=O)[O-]	32.5%
3. CC(C)NNC(=O)c1ccncc1	35.6%
4. CNC(=C[N+](=O)[O-])NCCSCc1ccc(CN(C)C)o1	35.7%
5. Cc1nnc2n1-c1ccc(Cl)cc1C(c1ccccc1Cl)=NC2	33.7%
6. Brc1ccccc1	35.1%
7. CN1C(=O)CCS(=O)(=O)C1c1ccc(Cl)cc1 (configuration not stated)	35.5%
8. O=C(OC[C@H]1O[C@@H](OC(=O)c2cc(O)c(O)c(OC(=O)c3cc(O)c(O)c(O)c3)c2)[C@H](OC(=O)c2cc(O)c(O)c(OC(=O)c3cc(O)c(O)c(O)c3)c2)[C@@H](OC(=O)c2cc(O)c(O)c(OC(=O)c3cc(O)c(O)c(O)c3)c2)[C@@H]1OC(=O)c1cc(O)c(O)c(OC(=O)c2cc(O)c(O)c(O)c2)c1)c1cc(O)c(O)c(OC(=O)c2cc(O)c(O)c(O)c2)c1	33.7%
9. Nc1c2c(nc3ccccc13)CCCC2	37.6%
10. CN/C(=N/CCSCc1nc[nH]c1C)NC#N	34.1%
11. CN(C)CCC(c1ccc(Cl)cc1)c1ccccn1 (configuration not stated)	33.7%
12. CCCc1cc(=O)[nH]c(=S)[nH]1	33.4%
